# key: entry, value: EC50
Biological target: T1, human GITR (human, UniProt Q9Y5U5 26-241)
T1 construct: also called TNFRSF18; Glucocorticoid-induced TNFR-related gene
T1 sequence: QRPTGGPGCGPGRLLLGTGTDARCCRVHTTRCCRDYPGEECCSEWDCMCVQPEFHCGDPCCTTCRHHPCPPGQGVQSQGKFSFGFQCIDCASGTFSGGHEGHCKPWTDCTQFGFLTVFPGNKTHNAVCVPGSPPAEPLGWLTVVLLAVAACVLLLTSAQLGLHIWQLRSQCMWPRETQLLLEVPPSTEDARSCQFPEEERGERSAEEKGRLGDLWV
Test: flow cytometry on activated human T cells
Enter your answer as a number in µg/mL; do not include the unit.

Below, each entry is followed by its recorded EC50 result.
5H7v22 (antibody, human IgG1, kappa, V domains shown, Engineered variant; also called Ab38; SS-16932) VH: QVQLQESGPGLVKPSETLSLTCTVSGGSISSGGYFWSWIRQPPGKGLEWIGYIYYSGTTYYNPSLKSRVTISIDTSKNQFSLKLSSVTAADTAVYYCARDLFYYDTSGPRGFEPWGQGTLVTVSS VL: EIVLTQSPGTLSLSPGERATLSCRASQTVSSNYLAWYQQKPGQAPRLLIYGSSTRATGIPDRFSGSGSGTDFTLTISRLEPEDFAVYYCQQYESSPWTFGQGTKVEIKR | 0.786
7A10v1 (antibody, human IgG1, kappa, V domains shown, Engineered variant; also called Ab39; SS-13810) VH: QVQLVESGGGVVQPGRSLRLSCAASGFTFSSYGMHWVRQAPGKGLEWMAVIWYVGSNKYYADSVKGRFTISRDNSKNTLYLQMNSLRAEDTAVYYCARGGELGRDYYSGMDVWGQGTTVTVSS VL: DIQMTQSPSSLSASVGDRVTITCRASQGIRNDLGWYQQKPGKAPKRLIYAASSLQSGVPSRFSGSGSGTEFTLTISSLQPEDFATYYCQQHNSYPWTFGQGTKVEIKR | 0.056

Turning now to a further record.
Please report the recorded EC50 for 5H7v3 (antibody, human IgG1, kappa, V domains shown, Engineered variant; also called Ab27; SS-16913) VH: QVQLQESGPGLVKPSETLSLTCTVSGGSISSGGYFWSWIRQPPGKGLEWIGYIYYSGTTYYNPSLKSRVTISIDTSKNQFSLKLSSVTAADTAVYYCARDLFYYDSSGPRGFEPWGQGTLVTVSS VL: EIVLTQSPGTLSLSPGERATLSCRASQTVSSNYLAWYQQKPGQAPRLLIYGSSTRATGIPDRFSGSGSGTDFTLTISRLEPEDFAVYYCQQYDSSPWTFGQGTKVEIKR .
0.293
